Recorded values, source ChEMBL document CHEMBL5329224.

Assay: Selectivity ratio of IC50 for inhibition of Biotinylated KRAS G13D mutant (unknown origin) to IC50 for inhibition of Biotinylated wild type KRAS (unknown origin)
Experimental Endpoint: Ratio IC50

Compound: Cc1cc(N)nc(-c2cc3nc(OC[C@@H]4CCCN4C)nc4c3c(c2Cl)OC[C@@H]2CN(C(=O)C3CCNCC3)CCN42)c1C(F)(F)F
Ratio IC50: 2.2

I: Cc1cc(N)nc(-c2cc3nc(OC[C@@H]4CCCN4C)nc4c3c(c2Cl)OC[C@@H]2CN(C(=O)CC[C@H]3CCCCN3)CCN42)c1C(F)(F)F
II: C=C1CN2CCC[C@@]2(COc2nc(N3CCN(C(=O)/C=C/c4cc(CNC)ccn4)C[C@@H]3C)c3cc(Cl)c(-c4nc(N)cc(C)c4C(F)(F)F)c(F)c3n2)C1
input: Select the item with the higher value of Ratio IC50 from the options I and II listed. Answer with the label corresponding to your selection.
output: II

* * *

Target: GTPase KRas (Homo sapiens, UniProt P01116, G13D)
Sequence (P01116 whole entry G13D): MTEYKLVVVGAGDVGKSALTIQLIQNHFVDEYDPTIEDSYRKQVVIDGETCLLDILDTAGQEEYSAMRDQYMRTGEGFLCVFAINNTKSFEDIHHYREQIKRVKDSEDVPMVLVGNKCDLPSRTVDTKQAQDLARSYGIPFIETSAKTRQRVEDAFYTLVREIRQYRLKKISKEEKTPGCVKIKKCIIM
Test: Inhibition of Biotinylated KRAS G13D mutant (unknown origin) incubated for 20 mins in presence of BODIPY-GDP by HTRF assay
pIC50: −log10 of the molar value.
Experimental Endpoint: pIC50

Compound: C=C1CN2CCC[C@@]2(COc2nc3c4c(c(Cl)c(-c5nc(N)cc(C)c5C(F)(F)F)c(F)c4n2)OC[C@@H]2CN(C(=O)/C=C/c4nccc5c4CNCC5)CCN32)C1
pIC50: 8.82

a: Cc1cc(N)nc(-c2cc3nc(OC[C@@H]4CCCN4C)nc4c3c(c2Cl)OC[C@@H]2CN(C(=O)[C@H](C)N(C)C)CCN42)c1C(F)(F)F
b: C=C1CN2CCC[C@@]2(COc2nc(N3CCN(C(=O)/C=C/c4cccc5c4CN4CCC5C4)C[C@@H]3C)c3cc(Cl)c(-c4nc(N)cc(C)c4C(F)(F)F)c(F)c3n2)C1 (stereo in doubt; form 1)
c: C=C1CN2CCC[C@@]2(COc2nc3c4c(c(Cl)c(-c5nc(N)cc(C)c5C(F)(F)F)cc4n2)OC[C@@H]2CN(C(=O)/C=C/c4nccc5c4CN(C)CC5)CCN32)C1
input: Order these by pIC50, descending, and give the full ranking. Return value: ordered labels per request.
output: c, b, a
(c: 7.31, b: 6.39, a: 5.09)

* * *

Molecular target: GTPase KRas (Homo sapiens, UniProt P01116, G13D)
Test: Inhibition of Biotinylated KRAS G13D mutant (unknown origin) incubated for 20 mins in presence of BODIPY-GDP by HTRF assay
pIC50: −log10 of the molar value.
Experimental Endpoint: pIC50

Some compounds with known pIC50 results, for comparison:
Compound: Cc1cc(N)nc(-c2cc3nc(OC[C@@H]4CCCN4C)nc4c3c(c2Cl)OC[C@@H]2CN(C(=O)C[C@@H]3CCNC3)CCN42)c1C(F)(F)F
Experimental Endpoint: pIC50
Result: 5.59
//
Compound: Cc1cc(N)nc(-c2cc3nc(OC[C@@H]4CCCN4C)nc4c3c(c2Cl)OC[C@@H]2CN(C(=O)C3CCNCC3)CCN42)c1C(F)(F)F
Experimental Endpoint: pIC50
Result: 5.49
//
Compound: Cc1cc(N)nc(-c2cc3nc(OC[C@@H]4CCCN4C)nc4c3c(c2Cl)OC[C@@H]2CN(C(=O)CC[C@H]3CCCCN3)CCN42)c1C(F)(F)F
Experimental Endpoint: pIC50
Result: 5.70
//
Compound: COC1CC(N)(C(=O)N2CCN3c4nc(OC[C@@H]5CCCN5C)nc5cc(-c6nc(N)cc(C)c6C(F)(F)F)c(Cl)c(c45)OC[C@@H]3C2)C1 (mixture of isomers)
Experimental Endpoint: pIC50
Result: 6.06
//
Compound: Cc1cc(N)nc(-c2cc3nc(OC[C@@H]4CCCN4C)nc4c3c(c2Cl)OC[C@@H]2CN(C(=O)CCC3(N)CCOC3)CCN42)c1C(F)(F)F (mixture of isomers)
Experimental Endpoint: pIC50
Result: 5.89
//
Compound: Cc1cc(N)nc(-c2cc3nc(OC[C@@H]4CCCN4C)nc4c3c(c2Cl)OC[C@@H]2CN(C(=O)C#CC3CCNC3)CCN42)c1C(F)(F)F (mixture of isomers)
Experimental Endpoint: pIC50
Result: 5.80
//
Compound: Cc1cc(N)nc(-c2cc3nc(OC[C@@H]4CCCN4C)nc4c3c(c2Cl)OC[C@@H]2CN(C(=O)CC[C@@]3(C)CCCN3)CCN42)c1C(F)(F)F
Experimental Endpoint: pIC50
Result: 5.72
//
Compound: Cc1cc(N)nc(-c2cc3nc(OC[C@@H]4CCCN4C)nc4c3c(c2Cl)OC[C@@H]2CN(C(=O)C[C@H]3CCC35CNC5)CCN42)c1C(F)(F)F
Experimental Endpoint: pIC50
Result: 5.46

I: Cc1cc(N)nc(-c2cc3nc(OC[C@@H]4CCCN4C)nc4c3c(c2Cl)OC[C@@H]2CN(C(=O)C3CC(N)CCO3)CCN42)c1C(F)(F)F (mixture of isomers)
II: Cc1cc(N)nc(-c2cc3nc(OC[C@@H]4CCCN4C)nc4c3c(c2Cl)OC[C@@H]2CN(C(=O)C3(N)CC3)CCN42)c1C(F)(F)F
input: Select the item with the higher value of pIC50 from the options I and II listed. Answer with the label corresponding to your selection.
output: II

I: Cc1cc(N)nc(-c2cc3nc(OC[C@@H]4CCCN4C)nc4c3c(c2Cl)OC[C@@H]2CN(C(=O)CC3CC5(CCC5)CN3)CCN42)c1C(F)(F)F (mixture of isomers)
II: C=C1CN2CCC[C@@]2(COc2nc(N3CCN(C(=O)/C=C/c4cccc5c4CNC(C)(C)C5)C[C@@H]3C)c3cc(Cl)c(-c4nc(N)cc(C)c4C(F)(F)F)c(F)c3n2)C1
input: Problem: Given the entries I and II , determine which has the lower reported pIC50. Answer with the label corresponding to your selection.
output: I
(I: 5.05, II: 6.34)
